- METHOD_NOTES: NOD1 signaling inhibitors, primary screen, cell-based, luminescence, uHTS (AID 1578);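 note: HEK-293T reporter cells stimulated with the NOD1 agonist gamma-tri-DAP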
- TEST_SETTINGS: NOD1-driven NF-kB luciferase reporter cells, at 4 µM
Among all 290,000 compounds or so, about 3,000 (1%) were called active. Cut-off read from the data, not from the text of the source: active = inhibition mostly above about 36% (no sharp cut-off); inactive = mostly below about 34%. This is one part of a sample in which actives are shown more often than they occur.
Can you answer with just one of these options? YES (active), NO (inactive)

Example entries and their recorded answers appear below.
q: Per the assay record, what outcome was assigned to Cc1cccc(CSc2ncnc3nc[nH]c23)c1 ?
a: NO

q: State the result this test recorded for Clc1ccc(NNc2ccnc3cc(Cl)ccc23)cc1 .
a: NO

q: What call does the record list for COC(=O)c1ccc(Cl)c(NC(=O)c2ccc(-c3ccccc3)cc2)c1 ?
a: NO

More entries:
q: // return assay outcome for c1ccc2c(CSc3ncnc4nc[nH]c34)cccc2c1
a: YES

q: Which result was noted for this molecule in the test: c1ccc(CCSc2ncnc3nc[nH]c23)cc1
a: NO

q: Would you mind telling me which call this test gave Cc1cc(C(=O)COC(=O)CN(C)S(=O)(=O)c2ccc(Cl)cc2)c(C)n1CC1CCCO1 (centres undefined) ?
a: NO

q: Identify the outcome logged in this assay for the molecule shown: CC(C)c1ccc(/C=N/Nc2ccc(C(=O)O)cc2)cc1
a: YES

q: Outcome? O=S(=O)(c1cccs1)N1CCN(Cc2nc3ccccc3s2)CC1
a: NO

* * *

- METHOD_NOTES: NOD1 signaling inhibitors, primary screen, cell-based, luminescence, uHTS (AID 1578);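 note: HEK-293T reporter cells stimulated with the NOD1 agonist gamma-tri-DAP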
- TEST_SETTINGS: NOD1-driven NF-kB luciferase reporter cells, at 4 µM
In all, about 290,000 compounds went through this assay and about 3,000 (1%) were called active. Rule as the data show it: active = inhibition mostly above about 36% (no sharp cut-off); inactive = mostly below about 34%. For the sample, actives were picked, then their nearest neighbours and some compounds at random.
Outcome (select one): active, inactive

q: Please let me know the test result on file for COC(=O)C(Cc1ccccc1)NC(=O)c1cccc(S(=O)(=O)N(C)C)c1 (configuration not stated) .
a: inactive

q: Just curious, what result did O=C(Nc1ccccc1C(=O)NCc1ccccc1)c1ccco1 get here?
a: inactive

q: Entry CN(Cc1ccccc1)C(=O)c1ccccc1NC(=O)c1ccco1 : call = ?
a: active

q: I'd appreciate the recorded outcome for Cc1ccc2[nH]c3c(c2c1)CCCC3NCCO (configuration not stated) from this test.
a: inactive

q: Could you check what this test reported for Cc1ccc2[nH]c3c(c2c1)CCCC3NC(=O)CCl (configuration not stated) ?
a: active

q: Lab log entry: Cc1ccc2[nH]c3c(c2c1)CCCC3C(N)=O (configuration not stated) — outcome as called in the assay?
a: inactive

More entries:
q: Which outcome did this test record for the compound Cc1cc(C(=O)OCC(=O)NC(C)C)c(C)o1 ?
a: inactive

q: Assay result, entry CN(Cc1ccccc1)C(=O)c1ccccc1NC(=O)c1ccccc1 — outcome?
a: inactive

q: Any idea what this test logged for FC(F)(F)Oc1ccc(NC(=S)Nc2ccccc2N2CCOCC2)cc1 ?
a: inactive

q: Hi, do you know how CCN(CC)c1ccc(S(=O)(=O)N2CCOCC2)cc1NC(=O)CN1CCN(Cc2ccccc2)CC1 came out in this test?
a: inactive

q: Tell me the assay call for COc1ccc(CCNC(=O)CSc2ccc(-c3ccco3)nn2)cc1OC please.
a: inactive

q: I'd appreciate the recorded outcome for NC(=O)CSc1nnc(CNc2cccc(Cl)c2)n1CCc1ccccc1 from this test.
a: inactive

* * *

- METHOD_NOTES: NOD1 signaling inhibitors, primary screen, cell-based, luminescence, uHTS (AID 1578);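 note: HEK-293T reporter cells stimulated with the NOD1 agonist gamma-tri-DAP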
- TEST_SETTINGS: NOD1-driven NF-kB luciferase reporter cells, at 4 µM, hits give high values
Screen size: about 290,000 compounds; about 3,000 (1%) were called active. This excerpt belongs to a sample that is enriched for actives.
# inhibition per entry
Enter your answer as a number in %; do not include the unit.

Here's what some known entries look like.
response.value for Cc1ncoc1C(=O)N1CCCC(CCC(=O)NCc2ccc(F)c(F)c2)C1 (configuration not stated) (field: inhibition) = -31.1

CC(=O)c1cccc(OCC(O)CNCC2CCCCC2)c1 (configuration not stated) has a reported inhibition of -5.6

For OC(CNCC1COc2ccccc2O1)COc1ccc(Cl)cc1 (configuration not stated) the compound record lists inhibition as -12.2

So, CC(C)=NOc1cc(NC(=O)CCl)cc([N+](=O)[O-])c1 ? Its inhibition was 89.5

According to the records, this compound C#CCn1cc(/C=N/NC(=O)c2cc3ccccc3o2)c2ccccc21 displays inhibition of -7.9

Turning now to a further compound:
Form: compound = O=S(=O)(NN1CCOCC1)c1ccc(Cl)s1 ; inhibition = -37.6

* * *

- METHOD_NOTES: NOD1 signaling inhibitors, primary screen, cell-based, luminescence, uHTS (AID 1578);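 note: HEK-293T reporter cells stimulated with the NOD1 agonist gamma-tri-DAP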
- TEST_SETTINGS: NOD1-driven NF-kB luciferase reporter cells, at 4 µM, hits give high values
In all, about 290,000 compounds went through this assay and about 3,000 (1%) were called active. The sample as a whole holds a higher share of actives than the screen did.
PROPERTY_MEASURED: inhibition (%)
Response body: numeric value in %, unit text excluded.

response.value for Cc1ccccc1NC(=O)COC(=O)c1cccnc1 (field: inhibition) = -22.1

Further cases:
Reported inhibition for Cc1nn(Cc2ccc(F)cc2)c(C)c1NC(=O)CCCn1nc([N+](=O)[O-])cc1C was -34.8

For this molecule ( C#CC(=O)N(c1ccc(OC)c(OC)c1)C(C(=O)NC1CCCC1)c1cccs1 (stereo unspecified) ), measured inhibition is 79.9

// inhibition value for C#CC(=O)N(c1cc(OC)ccc1OC)C(C(=O)NC1CCCC1)c1cccs1 (stereo unspecified) : -17.4

Recorded inhibition (molecule COc1ccccc1-[n+]1c(C)cc(/C=C2\Sc3ccccc3N2C)cc1C ): 28.9

Query CCCCN1CN(Cc2ccccc2)CNC1=S yields inhibition of -16.8

* * *

- METHOD_NOTES: NOD1 signaling inhibitors, primary screen, cell-based, luminescence, uHTS (AID 1578);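 note: HEK-293T reporter cells stimulated with the NOD1 agonist gamma-tri-DAP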
- TEST_SETTINGS: NOD1-driven NF-kB luciferase reporter cells, at 4 µM, hits give high values
In all, about 290,000 compounds went through this assay and about 3,000 (1%) were called active. The sample holds actives, similar compounds and a random draw of the others, so the mix is not that of the screen.
PROPERTY_MEASURED: inhibition (%)
Report as a plain number; the unit % is understood.

So, Cc1ccc(C)c(NC(=O)C2CC(O)CN2C(=O)OCc2ccccc2)c1 (stereo unspecified) ? Its inhibition was 4.8

Record O=S(=O)(Nc1cc(Sc2ncn[nH]2)c(O)c2ccccc12)c1ccccc1 , field inhibition: -1.5

The compound listed as Cc1ccc(SCCC(=O)NCCSCc2ccccc2C)cc1 shows inhibition equal to -35.1

Entry Nc1c(-c2ccccc2)c(CSc2nc3ccccc3[nH]2)nn1-c1cccc(C(=O)O)c1 — recorded inhibition = -21.3

Kindly note the recorded inhibition for CC(=O)N1CCn2c3c(c(=O)c4cc(C)ccc42)CCC31 (stereo unspecified) , which is -6.4

More entries:
Briefly, inhibition measured for COc1ccc(CNC(=O)CCSCc2ccc(C)cc2)cc1 : -7.5

Form: compound = CCOC(=O)c1c(-c2ccccc2)csc1NC(=O)C(C)NCc1ccco1 (stereo unspecified) ; inhibition = 1.6

Briefly, inhibition measured for Cc1ccc2c(c1)c1c3n2CCN(C(=O)CCl)C3CCC1 (stereo unspecified) : 52.3

Lab note: measured inhibition of CN1CCCN(C(=O)/C=C/c2ccc(F)cc2)CC1 was -22.5

Lab note: measured inhibition of COCCn1c(SCC(=O)Nc2cccc(C(=O)OC)c2)nc2ccccc2c1=O was 2.6

Sure, the documented inhibition for CS(=O)(=O)N1CCN(C(=O)COc2ccc3ccccc3c2)CC1 is 6.1

get_value(item= CN(C)CCN(C(=O)c1cccc2ccccc12)c1nc2cc3c(cc2s1)OCO3 , readout=inhibition) returns 17.7

The reported inhibition of the compound Cc1cccn2cc(-c3cc4ccccc4oc3=O)nc12 was -21.9

* * *

- METHOD_NOTES: NOD1 signaling inhibitors, primary screen, cell-based, luminescence, uHTS (AID 1578);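 note: HEK-293T reporter cells stimulated with the NOD1 agonist gamma-tri-DAP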
- TEST_SETTINGS: NOD1-driven NF-kB luciferase reporter cells, at 4 µM, hits give high values
Screen size: about 290,000 compounds; about 3,000 (1%) were called active. The list comes from a sample in which actives are over-represented; it also holds close analogues and randomly drawn compounds.
# inhibition per entry
Give the quantity in %, number only.

Sample COc1cc(NC(=O)[C@H](C)NC(=O)N2CCn3c2nc2ccccc23)cc(OC)c1 ; inhibition observed: 5.6

Reported inhibition for Cc1ccc(Nc2nc(-c3cccs3)cs2)nc1 was 46

inhibition reported for this molecule Cc1ccc(C(=O)NC(NCc2ccccc2)C(Cl)(Cl)Cl)cc1 (configuration not stated) : 5.2

* * *

Entries and their measured inhibition follow.
- METHOD_NOTES: NOD1 signaling inhibitors, primary screen, cell-based, luminescence, uHTS (AID 1578);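 note: HEK-293T reporter cells stimulated with the NOD1 agonist gamma-tri-DAP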
- TEST_SETTINGS: NOD1-driven NF-kB luciferase reporter cells, at 4 µM, hits give high values
The whole screen tested about 290,000 compounds, of which about 3,000 (1%) were called active. For the sample, actives were picked, then their nearest neighbours and some compounds at random.
# output: bare number, implied unit %

So for COc1ccc(CSc2nc(CSC)cc(N3CCOCC3)n2)cc1 , the logged inhibition turned out to be 7.8

Reported inhibition for COc1ccc(/C=C/C(=O)N2CCN(c3ccccn3)CC2)cc1 was -37.3

// recorded inhibition for CNC(=O)NC(=O)COC(=O)CCCOc1ccc(OC)cc1 : 4.1

Sure, the documented inhibition for O=C(CCl)c1ccc2c(c1)CCN2C(=O)C1CCCCC1 is 13

# inhibition of COc1ccc(-c2cc(-c3ccccc3)c(C#N)c(S(C)(=O)=O)n2)cc1 = 19.6
